# SYSTEM: Leucine-rich repeat serine/threonine-protein kinase 2 (Homo sapiens, UniProt Q5S007, G2019S)
# Sequence (Q5S007 whole entry G2019S, the tested form may be a part): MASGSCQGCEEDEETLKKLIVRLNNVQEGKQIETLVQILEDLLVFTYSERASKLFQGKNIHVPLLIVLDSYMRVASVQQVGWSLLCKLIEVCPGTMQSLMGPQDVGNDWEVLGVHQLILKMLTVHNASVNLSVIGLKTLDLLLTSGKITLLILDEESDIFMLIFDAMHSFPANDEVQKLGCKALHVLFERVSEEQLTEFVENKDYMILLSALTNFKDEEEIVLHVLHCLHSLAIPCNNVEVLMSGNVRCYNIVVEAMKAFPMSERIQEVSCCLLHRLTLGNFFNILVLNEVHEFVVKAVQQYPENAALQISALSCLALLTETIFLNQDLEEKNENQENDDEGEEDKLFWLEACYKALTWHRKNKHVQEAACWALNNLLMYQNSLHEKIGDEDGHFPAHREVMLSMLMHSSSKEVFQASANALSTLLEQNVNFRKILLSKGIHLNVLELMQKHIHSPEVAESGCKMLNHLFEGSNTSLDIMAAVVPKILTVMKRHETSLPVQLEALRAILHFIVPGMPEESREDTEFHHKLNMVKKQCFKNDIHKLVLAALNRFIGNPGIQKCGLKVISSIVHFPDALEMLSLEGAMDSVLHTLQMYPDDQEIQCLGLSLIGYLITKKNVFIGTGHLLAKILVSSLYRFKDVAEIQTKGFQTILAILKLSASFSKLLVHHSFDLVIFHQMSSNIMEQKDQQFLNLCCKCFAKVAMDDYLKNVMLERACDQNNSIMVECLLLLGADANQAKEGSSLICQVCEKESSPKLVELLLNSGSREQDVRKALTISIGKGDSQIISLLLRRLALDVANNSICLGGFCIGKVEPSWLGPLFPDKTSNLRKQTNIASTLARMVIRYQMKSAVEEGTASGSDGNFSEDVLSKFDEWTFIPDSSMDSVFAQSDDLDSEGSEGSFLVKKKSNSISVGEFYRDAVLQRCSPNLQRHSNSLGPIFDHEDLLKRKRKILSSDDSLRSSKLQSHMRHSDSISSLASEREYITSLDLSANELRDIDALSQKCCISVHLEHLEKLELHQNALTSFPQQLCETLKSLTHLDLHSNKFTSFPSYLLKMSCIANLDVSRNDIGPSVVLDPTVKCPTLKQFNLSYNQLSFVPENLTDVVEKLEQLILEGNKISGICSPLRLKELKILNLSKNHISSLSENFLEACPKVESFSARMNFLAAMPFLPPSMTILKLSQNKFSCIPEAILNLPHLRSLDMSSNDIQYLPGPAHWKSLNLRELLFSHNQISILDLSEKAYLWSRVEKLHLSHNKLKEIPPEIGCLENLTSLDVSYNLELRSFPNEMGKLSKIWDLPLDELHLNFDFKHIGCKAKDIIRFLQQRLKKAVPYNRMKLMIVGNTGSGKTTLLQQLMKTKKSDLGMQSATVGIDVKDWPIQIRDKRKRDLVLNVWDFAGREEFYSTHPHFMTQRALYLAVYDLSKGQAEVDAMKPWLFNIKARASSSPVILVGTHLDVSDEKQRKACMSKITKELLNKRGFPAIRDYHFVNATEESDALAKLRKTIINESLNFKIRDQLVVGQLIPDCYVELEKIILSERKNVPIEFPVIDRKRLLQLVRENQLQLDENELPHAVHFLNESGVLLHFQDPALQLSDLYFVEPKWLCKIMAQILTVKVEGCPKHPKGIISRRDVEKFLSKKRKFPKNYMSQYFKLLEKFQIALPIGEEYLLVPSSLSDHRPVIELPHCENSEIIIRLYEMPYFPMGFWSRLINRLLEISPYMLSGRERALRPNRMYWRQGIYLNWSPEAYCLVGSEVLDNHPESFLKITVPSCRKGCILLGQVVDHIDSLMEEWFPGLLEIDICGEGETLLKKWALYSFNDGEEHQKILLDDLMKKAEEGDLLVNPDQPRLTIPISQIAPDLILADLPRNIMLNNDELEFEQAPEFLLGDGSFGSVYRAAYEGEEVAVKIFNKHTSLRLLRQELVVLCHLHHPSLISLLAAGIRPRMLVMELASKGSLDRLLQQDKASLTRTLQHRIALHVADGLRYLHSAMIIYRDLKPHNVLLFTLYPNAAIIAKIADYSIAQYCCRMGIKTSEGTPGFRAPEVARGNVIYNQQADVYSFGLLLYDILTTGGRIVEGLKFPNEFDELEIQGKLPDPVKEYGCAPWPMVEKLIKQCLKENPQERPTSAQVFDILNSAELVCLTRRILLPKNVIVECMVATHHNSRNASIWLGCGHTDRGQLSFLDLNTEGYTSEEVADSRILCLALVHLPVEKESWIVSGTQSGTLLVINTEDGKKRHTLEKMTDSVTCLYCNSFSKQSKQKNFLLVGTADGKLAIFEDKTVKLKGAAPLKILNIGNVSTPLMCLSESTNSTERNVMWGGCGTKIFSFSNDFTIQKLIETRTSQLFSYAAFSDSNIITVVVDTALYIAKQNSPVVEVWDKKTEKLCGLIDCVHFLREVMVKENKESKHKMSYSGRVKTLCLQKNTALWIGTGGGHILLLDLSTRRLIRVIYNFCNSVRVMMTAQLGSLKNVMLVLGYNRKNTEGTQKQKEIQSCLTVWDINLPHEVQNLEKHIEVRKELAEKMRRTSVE
# EXPERIMENT DESCRIPTION: Inhibition of N-terminal GST-fused human LRRK2 G2019S mutant using fluorescein-labeled LRRKtide as substrate preincubated for 15 mins followed by substrate addition and measured after 1 hr by TR-FRET assay
Can you tell me IC50 for the items I'm about to list?
Give bare numbers, in nM.

Check out these entries, answers already filled in.
smiles_entry=CC1=C(C(=O)Nc2ccc3[nH]ncc3c2)Cn2nnnc2N1CCN1CCOCC1 obs_value=4650
smiles_entry=CC1=C(C(=O)Nc2ccc3cnc(C)n3c2)Cn2nnnc2N1C obs_value=3120
smiles_entry=CC1=C(C(=S)Nc2ccc3[nH]ncc3c2)Cn2nnnc2N1C obs_value=15.3
smiles_entry=CC1=C(C(=O)Nc2ccc3[nH]ncc3c2)C(C)(C)n2nnnc2N1C obs_value=12
smiles_entry=CC1=C(C(=O)Nc2ccc3c(N)nccc3c2)[C@@H](C)n2nnnc2N1C obs_value=12

Please report IC50 for every entry that follows.
1. CC1=C(C(=O)Nc2ccc3[nH]ncc3c2)[C@@H](C)n2nnnc2N1C
2. CC1=C(C(=O)Nc2ccc3[nH]ncc3c2)[C@H](C)n2nnnc2N1C
3. CC1=C(C(=O)Nc2ccn3cnc(C)c3c2)Cn2nnnc2N1C
4. CC1=C(C(=O)Nc2ccc3[nH]nc(C)c3c2)[C@@H](C)n2nnnc2N1C
5. CC1=C(C(=O)Nc2ccc3[nH]nc(Br)c3c2)Cn2nnnc2N1C

1. 1.64
2. 94
3. 1350
4. 0.82
5. 2.4

* * *

# SYSTEM: Leucine-rich repeat serine/threonine-protein kinase 2 (Homo sapiens, UniProt Q5S007, G2019S)
# EXPERIMENT DESCRIPTION: Inhibition of N-terminal GST-fused human LRRK2 G2019S mutant using fluorescein-labeled LRRKtide as substrate preincubated for 15 mins followed by substrate addition and measured after 1 hr by TR-FRET assay
Would you kindly list IC50 for each of these molecules?

Some molecules with recorded IC50:
smiles_entry=CC1=C(C(=O)Nc2ccc3[nH]nc(-c4ccnc(N5CCOCC5)c4)c3c2)Cn2nnnc2N1C obs_value="< 0.0002 µM"
smiles_entry=CC1=C(C(=O)Nc2ccc3[nH]c(=O)n(C)c3c2)[C@@H](C)n2nnnc2N1C obs_value="0.058 µM"
smiles_entry=CC1=C(C(=O)Nc2ccc3[nH]nc(-c4ccnc(N5CCOCC5)c4)c3c2)[C@@H](C)n2nnnc2N1C obs_value="< 0.0002 µM"

Provide each entry's IC50 from the list below.
1. CC1=C(C(=O)Nc2ccc3[nH]nc(-c4nc5ccccc5[nH]4)c3c2)Cn2nnnc2N1C
2. CC1=C(C(=O)N(C)c2ccc3[nH]ncc3c2)Cn2nnnc2N1C

< 0.0002 µM
> 10 µM

* * *

# Species on record: Homo sapiens
# EXPERIMENT DESCRIPTION: Selectivity ratio of IC50 for inhibition of N-terminal GST-fused human wild type LRRK2 to IC50 for inhibition of N-terminal GST-fused human […] mutant
Answer each item with its documented Ratio IC50.

Recorded results for 2 compounds are shown here.
smiles_entry=CC1=C(C(=O)Nc2ccc3[nH]nc(-c4nc5ccccc5[nH]4)c3c2)Cn2nnnc2N1C quantity="Ratio IC50" obs_value="> 2.6"
smiles_entry=CC1=C(C(=O)Nc2ccc3cnc(C)n3c2)Cn2nnnc2N1C quantity="Ratio IC50" obs_value="> 3.2"

Next item in the queue.
Determine from records and report Ratio IC50 for CC1=C(C(=O)Nc2ccc3[nH]nc(-c4ccnc(N5CCOCC5)c4)c3c2)C(C)(C)n2nnnc2N1C
> 1.5

Source of measurements: ChEMBL document CHEMBL5244270
